# experimentNotes: growth of efflux-deficient E. coli DRC39 – strain DRC39, OD650, 48 h, E. coli filamentation inducers, primary screen (AID 1179);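 further: screen aims at cell division blockers that make cells filament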
# experimentalContext: E. coli DRC39 delta-acrAB growth, higher = more signal, called active from +8 up or from −8 down
Active and inactive are the calls of the source.
Each record here notes measured z-score.

Worked cases, z-score given:
Asked: Which measured z-score value corresponds to [N-]=[N+]=Nc1ccccc1[C@H]1OC(c2ccc(OCCCO)cc2)=N[C@@]1(Cc1ccccc1)C(=O)NCCN1CCOCC1 ?
Given back: 0.627 (inactive)

Asked: Also CCCCCCCCCCC(O)C1C=CC2C(=O)N(c3ccccc3)C(=O)C2N1Nc1ccc(C#N)cc1 (stereo not given) ?
Given back: 0.598 (inactive)

Now turn to the next compound.
Asked: Given the entry Cc1ccc(NN2C(C(O)c3c(F)cccc3Cl)C=CC3C(=O)N(C4CCCCC4)C(=O)C32)cc1 (stereo not given) , report its measured z-score.
Given back: 0.432 (inactive)

---

# experimentNotes: probe aLAP1 signal on lysate-treated microarray – cell lysate, small-molecule microarray, COS7 lysate, primary screen (AID 1124);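 further: lysate comes from COS7 cells expressing LAP1 and is applied at 0.3 µg/mL; score merges spot fluorescence near 667 nm with signal-to-noise over triplicate slides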
# experimentalContext: probe aLAP1, fluorescence, higher = more signal
measurementName: composite z-score
Answer using only a numeral; do not append any unit.

Asked: Param item = COCCOC(=O)N1C(=O)[C@@]2(c3cc(C#CC4(O)CCCCCC4)ccc31)[C@H](C(=O)Nc1nc3ccccc3s1)[C@H]1C(=O)O[C@H](c3ccccc3)[C@H](c3ccccc3)N1[C@@H]2c1ccc(O)cc1 ; retrieve measured composite z-score.
Given back: 0.713

Asked: Okay, and C=CCC(OC(C)=O)[C@@H]1[C@@H](N(Cc2ccc(-c3cccc(C(F)(F)F)c3)o2)C(=O)c2ccc(-c3ccccc3)cc2)c2cc(OCCCO)ccc2N1C(=O)Cc1ccc2ccccc2c1 (stereo partly drawn) ?
Given back: -0.039

Would you kindly look at the next entry?
Asked: Fill in the blank: the reported composite z-score of CCCCC(=C=CC[C@H](O)c1ccc(OCCO)cc1)CCO is ____.
Given back: 0.251

---

# experimentalTarget: Focal adhesion kinase 1 (Homo sapiens) (UniProt Q05397)
# Sequence (Q05397 whole entry, looked up): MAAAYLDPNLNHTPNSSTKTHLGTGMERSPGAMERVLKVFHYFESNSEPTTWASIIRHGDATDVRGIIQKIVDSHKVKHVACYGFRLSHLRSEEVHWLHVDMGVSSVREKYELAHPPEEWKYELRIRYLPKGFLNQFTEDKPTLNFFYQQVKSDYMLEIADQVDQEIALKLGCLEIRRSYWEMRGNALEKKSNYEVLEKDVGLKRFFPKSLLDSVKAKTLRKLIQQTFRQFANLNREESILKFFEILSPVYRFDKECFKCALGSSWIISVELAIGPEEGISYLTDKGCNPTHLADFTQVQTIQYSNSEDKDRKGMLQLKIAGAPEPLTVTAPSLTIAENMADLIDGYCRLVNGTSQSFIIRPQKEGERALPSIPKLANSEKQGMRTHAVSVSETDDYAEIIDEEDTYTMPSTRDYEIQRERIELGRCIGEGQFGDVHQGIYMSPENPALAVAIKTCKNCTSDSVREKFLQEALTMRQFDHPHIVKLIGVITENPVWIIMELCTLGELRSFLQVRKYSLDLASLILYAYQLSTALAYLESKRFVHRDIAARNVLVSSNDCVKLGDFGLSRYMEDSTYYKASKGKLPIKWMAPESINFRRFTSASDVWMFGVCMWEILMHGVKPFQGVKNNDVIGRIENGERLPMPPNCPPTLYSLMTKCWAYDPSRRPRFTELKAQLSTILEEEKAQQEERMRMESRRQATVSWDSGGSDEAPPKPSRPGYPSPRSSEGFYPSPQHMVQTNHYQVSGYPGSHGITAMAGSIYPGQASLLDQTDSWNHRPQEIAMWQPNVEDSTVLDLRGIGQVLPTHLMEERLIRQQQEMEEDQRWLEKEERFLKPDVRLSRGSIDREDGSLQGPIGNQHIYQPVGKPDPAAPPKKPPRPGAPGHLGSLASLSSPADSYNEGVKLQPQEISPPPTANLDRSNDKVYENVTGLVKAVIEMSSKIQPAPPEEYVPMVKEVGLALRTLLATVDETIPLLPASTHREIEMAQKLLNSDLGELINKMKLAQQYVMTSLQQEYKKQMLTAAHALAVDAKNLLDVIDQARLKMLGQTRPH
# experimentNotes: PTK2 protein binding on printed compound slides – biochemical, small-molecule microarray, 635/667 nm fluorescence, BSA, DTT, primary screen (AID 1130);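 further: composite of spot emission at 667 nm and signal to noise over triplicate slides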
# experimentalContext: 635 nm fluorescence, higher = more signal
measurementName: composite z-score
Lab note: jot the number down without any unit.

Example cases with answers are listed next.
Asked: Find the recorded composite z-score belonging to CCN(CC)c1ccc(N2CC=CC34O[C@@H]5/C=C\CCCOC(=O)C5[C@H]3C(=O)N(C(C)CO)[C@@H]4C2=O)cc1 (some centres undefined) and report it.
Given back: -0.294

Asked: And the next one, NC(=O)NCC#Cc1ccc2c(c1)[C@]1(C(=O)N2)[C@H](c2ccccc2OCCO)N2[C@H](c3ccccc3)[C@H](c3ccccc3)OC(=O)[C@H]2[C@@H]1C(=O)NC[C@H](O)c1ccccc1 ?
Given back: 0.183

Asked: Same for CCOC(=O)C[C@H]1[C@H](OC(=O)c2ccc(C(=O)c3ccccc3)cc2)[C@@H](NC(=O)c2ccc3ccccc3n2)c2cc(OCCCO)ccc2N1C(=O)Cc1ccc(OC)cc1
Given back: 0.0555

Next up:
Asked: Fill in: composite z-score of CCCCC(=C=CC[C@H](O)c1ccc(OCCO)cc1)CCO is ___
Given back: 0.0832

Origin of the recorded values: PubChem BioAssay
